Molecular target: chymotrypsin-like activity of the purified rabbit 20S proteasome (Oryctolagus cuniculus, UniProt G1T4Q9)
Sequence (G1T4Q9 1-263): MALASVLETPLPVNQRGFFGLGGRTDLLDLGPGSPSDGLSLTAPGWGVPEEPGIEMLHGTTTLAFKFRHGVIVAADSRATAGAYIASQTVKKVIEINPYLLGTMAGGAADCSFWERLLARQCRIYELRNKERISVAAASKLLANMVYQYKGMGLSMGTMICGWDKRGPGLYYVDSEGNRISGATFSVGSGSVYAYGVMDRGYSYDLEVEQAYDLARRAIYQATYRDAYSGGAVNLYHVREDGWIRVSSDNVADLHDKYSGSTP
Assay: 20S proteasome inhibition assay, fluorogenic substrate Suc-Leu-Leu-Val-Tyr-AMC;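 further: enzyme and 20 µM substrate incubated 1 h at 37 °C in Tris-HCl buffer pH 7.6, fluorogenic read-out, inhibition calculated against vehicle control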
Format: biochemical
Conditions: value quoted in running text / FIG. 11; read-out: IC50 against chymotrypsin-like proteasome activity
Endpoint label: pIC50
For clarity, pIC50 is expressed as the negative log10 of concentration in mol/L.

Input: Identify measured pIC50 associated with O=C(O)CSc1cc(NS(=O)(=O)c2ccccc2)c2ccccc2c1O
Output: 5.68

Input: Give the reported pIC50 for this molecule. O=C(O)CSc1cc(NS(=O)(=O)c2ccc(-c3ccccc3)cc2)c2ccccc2c1O
Output: 5.72

---

Endpoint label: melting point

Input: Determine its reported melting point: O=S(=O)(Nc1cc(I)c(O)c2ccccc12)c1cccs1 [YG1-033]
Output: 134 to 136 °C

Input: Please give measured melting point of the following entry: O=C1C(Sc2ncn[nH]2)=C/C(=N\S(=O)(=O)c2cccs2)c2ccccc21 [YG1-158-2]
Output: 197 °C (dec.)

Input: Identify measured melting point associated with CC(C)(C)OC(=O)COC1=CC(=O)c2ccccc2C1=O [YL2-013]
Output: 120 to 122 °C

Input: Supply melting point value. Item: CCOC(=O)CSc1cc(NS(=O)(=O)c2ccc(-c3ccccc3)cc2)c2ccccc2c1O [14r]
Output: 166 to 168 °C

Input: Report melting point for O=C1C(N2CCOCC2)=C/C(=N\S(=O)(=O)c2cccs2)c2ccccc21 [YG1-129]
Output: 195 °C (dec.)

Input: Return value of melting point for input O=C(O)CCSc1cc(NS(=O)(=O)c2cccs2)c2ccccc2c1O [YG1-116] , no commentary.
Output: 185 °C (dec.)

Input: For the compound O=C(O)c1ccccc1Sc1cc(NS(=O)(=O)c2ccc(-c3ccccc3)cc2)c2ccccc2c1O [YG1-168] , report melting point.
Output: 205 °C (dec.)

Input: Tell us which melting point value is on record for O=C(O)c1ccccc1Sc1cc(NS(=O)(=O)c2cccs2)c2ccccc2c1O [YG1-155]
Output: 215 °C (dec.)

Input: Give recorded melting point. CC(Sc1cc(NS(=O)(=O)c2ccc(Cl)cc2)c2ccccc2c1O)C(=O)O (stereo not drawn) [YG2-024-1]
Output: 177 to 179 °C

Input: State its melting point: COC(=O)CCSc1cc(NS(=O)(=O)c2cccs2)c2ccccc2c1O [9b]
Output: 117 to 119 °C

Input: Using known records, supply melting point for COC(=O)CCSC1=C/C(=N\S(=O)(=O)c2cccs2)c2ccccc2C1=O [8b]
Output: 140 to 142 °C

Input: Recall and state the measured melting point for O=C(O)CSc1cc(NS(=O)(=O)c2ccc3ccccc3c2)c2ccccc2c1O [YG2-034-2] .
Output: 185 to 187 °C

Input: Output melting point of CCOC(=O)CSC1=C/C(=N\S(=O)(=O)c2ccccc2)c2ccccc2C1=O [YG1-110]
Output: 93 to 95 °C

Input: Fill in melting point for record CC(Sc1cc(NS(=O)(=O)c2ccc3ccccc3c2)c2ccccc2c1O)C(=O)O (stereo not drawn) [YG2-024-2]
Output: 176 to 178 °C

Input: Return melting point for the following compound: CCOC(=O)CSc1cc(NS(=O)(=O)c2ccccc2)c2ccccc2c1O [YG1-113]
Output: 118 to 120 °C
